meta.source: PubChem BioAssay (NCI)

Test system: UACC-257 melanoma
Test: NCI tumour cell line growth inhibition, 48 h
Observable: TGI

>>> df
                                smiles_code  observable  reported
0  O=C(Nc1cccc(-n2cc(-c3ccncc3)c(-c3ccc(O)c(Cl)c3)n2)c1)c1cc(C(F)(F)F)cc(C(F)(F)F)c1         TGI   > 50 µM
1                CN(C)/C=N\c1nncc2[nH]cnc12         TGI  > 100 µM
2        Cc1ccc(Cl)cc1NC(=O)c1cc2ccccc2cc1O         TGI  0.909 µM
3  C[C@@H](NC(=O)c1ncnc(N)c1Cl)c1ncc(C(=O)Nc2cc(C(F)(F)F)c(Cl)cn2)s1         TGI   4.77 µM
4       CSC1=C(C(=O)Nc2ccc(C)cc2)C(N)=NC1=O         TGI  > 100 µM

----------
Test system: OVCAR-8 ovarian
Assay: NCI tumour cell line growth inhibition, 48 h
Observable: TGI

In [3]: df
Out[3]:
                                    compound  observable   reported
 0                   N=c1ccc2nc(N)nn(O)c-2c1         TGI   > 100 µM
 1            Cc1cccc(/C=N\NC(=S)N2CCCCC2)n1         TGI   0.582 µM
 2  CCc1[nH]c(=O)c2oc3cc4ccccc4cc3c2c1C(=O)O         TGI    > 10 µM
 3  CCOC(=O)[C@@H]1ON2O[C@H](OC3CCCCC3c3ccccc3)C[C@H]3OC(=O)[C@@H]1C32 (stereo partly specified)         TGI   > 100 µM
 4  O=C(/C=C1\N=C(c2ccccc2)N(c2nc3c(Cl)cc(Cl)cc3s2)C1=O)/C=C/c1ccccc1         TGI   > 100 µM
 5  CCc1cc2c(c3c1CCCC3)CC1(Cc3ccc(C(=O)OC)cc3C1)C2 (stereo unspecified)         TGI   > 100 µM
 6  Oc1cc(CN2CCOCCOCCOCCOCC2)c(O)cc1CN1CCOCCOCCOCCOCC1         TGI   > 100 µM
 7  NC(Cc1c[nH]c2ccc(F)cc12)C(=O)O (stereo unspecified)         TGI  > 2500 µM
 8  COC(=O)C1(C)CC2C(C)(CCC3(C)C4=CC=C5C(=CC(=O)C(O)=C5C)C4(C)CCC23C)CC1O (stereo unspecified)         TGI    2.38 µM
 9  CC(=O)Nc1ccc(C(=O)NN2C(=O)C(Cl)C2c2cccc([N+](=O)[O-])c2)cc1 (stereo unspecified)         TGI   > 100 µM
10  COc1cccc(/C=N/[N-]C(N)=O)c1[O-].[Ni+2].[OH3+]         TGI    1.66 µM
11       COc1ccccc1-n1c(NN)nc2ccc(Br)cc2c1=O         TGI   > 100 µM
12  C[N+]1(CCC(=O)c2ccccc2)CCC2CCC(C2)C1 (stereo unspecified)         TGI   > 100 µM
13  O=C(Nc1cccc(-n2cc(-c3ccncc3)c(-c3ccc(O)c(Cl)c3)n2)c1)c1cc(C(F)(F)F)cc(C(F)(F)F)c1         TGI    > 50 µM
14  NC(N)=NS(=O)(=O)c1ccc(NNC(=O)c2cccc3c(=O)c4ccccc4[nH]c23)cc1         TGI    59.4 µM
15  CCCCCCCCCCCCCCCCc1c(C(=O)OC)nc(NN)[nH]c1=O         TGI    > 50 µM
16        CCOc1ccc2c(c1)CN(Cc1ccc(Cl)cc1)CO2         TGI    38.3 µM
17  COc1ccc(Cl)cc1Nc1nc(C(F)(F)F)ccc1C(=O)N/N=C/c1cccnc1         TGI   > 100 µM
18  CC(c1ccccc1)[C@@H](C(=O)Nc1ccc(I)cc1F)N1C(=O)N[C@H](c2ccc(OC[C@H](O)CO)cc2)C1=O (stereo partly specified)         TGI    > 25 µM
19         Cc1n[n+]([O-])c(C)cc1[N+](=O)[O-]         TGI    31.6 µM
20              O=c1ccc(=O)n(-c2ccccc2)[nH]1         TGI   > 100 µM

----------
Test system: MDA-MB-435
Assay: NCI tumour cell line growth inhibition, 48 h
Some compounds, each annotated with its measured TGI.

Compound	TGI
CC1C(=O)c2cc3c(cc2CCN(C)Cc2c1ccc1c2OCO1)OCO3 (stereo not drawn)	> 75 mg/L
O=S(=O)(O)c1ccc2c(N=Nc3ccc(N=Nc4ccccc4)cc3)c(O)c(S(=O)(=O)O)cc2c1	> 100 µM
COc1cccc(C=C2N=C(c3ccccc3)N(n3c(-c4ccccc4)nc4ccccc4c3=O)C2=O)c1	> 100 µM
COc1cccc(/C=C/c2ccnc3ccccc23)c1OC	> 10 µM
COc1cccc2nc3ccccc3nc12	> 100 µM
OCc1ccc(N2CCc3cc(F)ccc3C2)cc1Cl	27.6 µM
CCOC(=O)c1sc2c(c1O)c(=O)n(-c1ccccc1)c(=S)n2-c1ccccc1	> 100 µM
O=C1C2Cc3c(n(C(=O)c4ccccc4)c4ccccc34)CC2C(=O)N1c1ccc(Nc2ccc(N3C(=O)C4Cc5c(n(C(=O)c6ccccc6)c6ccccc56)CC4C3=O)cc2)cc1 (stereo not drawn)	> 100 µM
CCN(CC)c1ccc(C2Nc3ccc4ccccc4c3C3=C2C(=O)CCC3)cc1 (stereo not drawn)	> 100 µM
NC(N)=NS(=O)(=O)c1ccc(NNC(=O)c2cccc3c(=O)c4ccccc4[nH]c23)cc1	57.5 µM
Nc1nnnc2nc[nH]c12	2.57 µM
CC(C)CC(NP(=O)(O)OC1OC(C)C(O)C(O)C1O)C(=O)NC(Cc1c[nH]c2ccccc12)C(=O)O (stereo not drawn)	> 100 µM
NC(=O)NNCc1c(-c2ccccc2)no[n+]1[O-]	> 100 µM
Nc1cc(S(=O)(=O)O)cc2ccc(S(=O)(=O)O)cc12	> 100 µM
O=C(CC(c1ccccc1)C1C(=O)NC(=S)NC1=O)c1ccc([N+](=O)[O-])cc1 (stereo not drawn)	> 100 µM
Clc1ccc(Nc2nc(Nc3ccccc3)nc(Nc3ccc(-c4cc(-c5ccc(Cl)cc5)on4)cc3)n2)cc1	69.7 µM
COc1cc(/C=C/C(=O)/C=C/c2cc3ccc(Cl)cc3n(Cc3ccccc3)c2=O)ccc1O	4.32 µM
CCCCCCNC(=S)N/N=C(\C)c1ccccn1	17.8 µM
CN(C)C(=O)OC1=CC2CCC(C1)N2C (stereo not drawn)	> 100 µM
CCc1cc2c(c3c1CCCC3)CC1(Cc3ccc(C(=O)OC)cc3C1)C2 (stereo not drawn)	> 100 µM
CC[C@]1(O)CC2CN(CCc3c([nH]c4ccccc34)[C@@](C(=O)OC)(c3cc4c(cc3OC)N(C=O)[C@H]3[C@@](O)(C(=O)OC)[C@H](OC(C)=O)[C@]5(CC)C=CCN6CC[C@]43[C@@H]65)C2)C1 (stereo partly drawn)	< 0.005 µM
COC1=C(OC)C(=O)C(Sc2ccc3ccccc3c2)=CC1=O	29.8 µM
OCCCSCCO	> 100 µM
CCCCCCCCCC(CCCC(O)CC(=O)O)OC1OC(COC2OC(C)C(OC(C)=O)C(O)C2O)C(O)C(O)C1OC1OC(CO)C(O)C(O)C1OC1OC(C)C(OC(=O)CC(C)C)C(O)C1O (stereo not drawn)	> 35 µM
CCOC(=O)c1nc2ccc(C(F)(F)F)cc2nc1Nc1ccc(F)cc1	> 100 µM
O=C(O)C(O)C(O)C(O)C(O)C(=O)O (stereo not drawn)	> 100 µM
N#Cc1ccccc1C#C/C=C\C#CC#C/C=C\C#Cc1ccccc1C#N	26.4 µM
COC(=O)n1c(C)c(C=O)c2ccc(OC)cc21	47.2 µM
O=C(c1ccccc1)c1ccc2c(c1)nc1n2C(c2c(F)cccc2F)SC1 (stereo not drawn)	> 100 µM
COc1ccc(Cn2cc3c(c2)-c2oncc2CC3)cc1OC	0.235 µM
CCN(CC)CCCNc1ccc([N+](=O)[O-])c2nc3ccc(OC)cc3c(N)c12	3.12 µM
O=C(Nc1ccccc1C(F)(F)F)c1ccc(NC2=C(Cl)C(=O)N(Cc3ccccc3)C2=O)cc1	> 100 µM
O=C(Nc1cccc(-n2cc(-c3ccncc3)c(-c3ccc(O)c(Cl)c3)n2)c1)c1cc(C(F)(F)F)cc(C(F)(F)F)c1	> 50 µM
c1ccc(-c2c3c(nc4c2CC[C@H]4NC2=NCCN2)[C@@H](NC2=NCCN2)CC3)cc1	> 100 µM
NC(Cc1c[nH]c2ccc(F)cc12)C(=O)O (stereo not drawn)	> 2500 µM
COc1ccc(C(=O)O[C@H]2[C@H](O[C@H]3[C@@H](O)COC(O[C@H]4C[C@H]5[C@@H]6CC=C7C[C@@H](O)CC[C@]7(C)[C@H]6CC[C@]5(C)[C@H]4[C@H](C)C(=O)CCC(C)C)[C@@H]3OC(C)=O)OC[C@@H](O)[C@@H]2O)c(C)c1 (stereo partly drawn)	0.0774 µM
CC(=O)OCC1OC(n2c(N)c(C#N)c(C)c(C#N)c2=S)C(OC(C)=O)C(OC(C)=O)C1OC(C)=O (stereo not drawn)	> 100 µM
O=C1c2ccccc2C(=O)c2c1ccc1c(=O)n(-c3ccccc3C(F)(F)F)nnc21	3.1 µM
